Parameter normalized growth: see the listing below.
- assayRemarks: chemical genetic growth profiling, strain panel (AID 1159580);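 further: tested at 20 µM; growth read once vehicle control cultures reached saturation at 30 °C; 1 = growth at the plate median or of vehicle wells; lower values mean less growth of the strain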
- measurementParameters: S. cerevisiae deletion strains, growth OD, locus YNL128W, strain TEP1, active compounds read low
The whole screen tested about 5,500 compounds, of which about 2,000 (36%) were called active. Inconclusive results (about 18%) are left out. This is one part of the list.
Enter a number only.

# example entries with known answers
OC[C@H]1O[C@@H](n2cnc3c(NCCc4ccccc4)ncnc32)C(O)[C@H]1O (stereo not given in full) : 0.989
C=CCC1(C(C)CCC)C(=O)N=C(S)NC1=O (stereo not given) : 1.01
O=[N+]([O-])c1ccc(O)c([N+](=O)[O-])c1 : 0.842
NCC(O)c1ccc(O)cc1 (stereo not given) : 0.993
Oc1c(Cl)cc(Cl)c2cccnc12 : 0.0643

Task item: Read the entry CCSc1nnc(N)s1 and write its reported normalized growth.
Reply: 1.01

Task item: Read the entry CC1(C)C(C(Cl)Cl)C2(Cl)C(Cl)C(Cl)C1(Cl)C2(Cl)Cl (stereo not given) and write its reported normalized growth.
Reply: 0.992

Task item: Read the entry CCCC(C)C1(CC)C(=O)NC(=O)NC1=O (stereo not given) and write its reported normalized growth.
Reply: 1.02

Task item: Read the entry CC[N+](CC)(CC)CC(=O)Nc1c(C)cccc1C and write its reported normalized growth.
Reply: 1.01

Task item: Read the entry COC(=O)c1cc([N+](=O)[O-])ccc1NC(C)=O and write its reported normalized growth.
Reply: 1.01

Task item: Read the entry CN1[C@@H](CC(=O)c2ccccc2)CCC[C@H]1C[C@H](O)c1ccccc1 and write its reported normalized growth.
Reply: 1

Task item: Read the entry CCCC1O[C@@H]2CC3C4CCC5=CC(=O)C=CC5(C)C4[C@@H](O)CC3(C)[C@]2(C(=O)CO)O1 (stereo not given in full) and write its reported normalized growth.
Reply: 1

Task item: Read the entry CCCCC(CC)CN1CN(CC(CC)CCCC)CC(C)(N)C1 (stereo not given) and write its reported normalized growth.
Reply: 0.288

Task item: Read the entry CCN(CC)CCNC(=O)c1cc(S(C)(=O)=O)ccc1OC and write its reported normalized growth.
Reply: 1.02

====

- assayRemarks: chemical genetic growth profiling, strain panel (AID 1159580)
- measurementParameters: S. cerevisiae deletion strains, growth OD, locus YLR221C, strain rsa3
Screen size: about 5,500 compounds; about 2,000 (36%) were called active. Another 18% or so got no clear call; they are omitted. Cut-off read from the data, not from the text of the source: active = normalized growth mostly below about 0.91 (no sharp cut-off); inconclusive = no clear call, values can overlap the other calls; inactive = mostly above about 0.92. Some of the results follow.
Pick one and only one: 1 (yes) = active, 0 (no) = inactive

CC(C)(C)NCC(O)c1ccccc1Cl (stereo not given) : 0 (no)
Oc1c(I)cc(Cl)c2cccnc12 : 1 (yes)
COc1cc2c(c(OC)c1OC)-c1ccc(OC)c(=O)cc1[C@@H](NC(C)=O)CC2 : 0 (no)

Task item: What was the test verdict on C/C=C/c1ccc2c(c1)OCO2 ?
Reply: 0 (no)

Task item: What was the test verdict on O=C(O)c1ccccc1Nc1cccc(C(F)(F)F)c1 ?
Reply: 1 (yes)

Task item: What was the test verdict on C=C[C@@H](C1=CC(=O)C(OC)=C(OC)C1=O)c1ccccc1 ?
Reply: 1 (yes)

Task item: What was the test verdict on O=C(O)c1ccccc1Nc1ccccc1 ?
Reply: 0 (no)

Task item: What was the test verdict on C=CC(C1=CC(=O)C(OC)=CC1=O)c1ccccc1 (stereo not given) ?
Reply: 1 (yes)

Task item: What was the test verdict on CC(C)NCC(O)c1ccc2ccccc2c1 (stereo not given) ?
Reply: 0 (no)

Task item: What was the test verdict on Cc1c(Nc2ncccc2C(=O)O)cccc1C(F)(F)F ?
Reply: 0 (no)

Task item: What was the test verdict on O=C(OC1Cc2c(O)cc(O)cc2OC1c1cc(O)c(O)c(O)c1-c1c(C2Oc3cc(O)cc(O)c3CC2OC(=O)c2cc(O)c(O)c(O)c2)cc(O)c(O)c1O)c1cc(O)c(O)c(O)c1 (stereo not given) ?
Reply: 0 (no)

Task item: What was the test verdict on C=CC(C)(O)CC/C=C(\C)CCC=C(C)C (stereo not given) ?
Reply: 1 (yes)

Task item: What was the test verdict on CC(C)=CCC/C(C)=C/CC/C(C)=C/CC/C(C)=C/CC/C(C)=C/CC/C(C)=C/CC/C(C)=C/CC/C(C)=C/CC/C(C)=C/CO ?
Reply: 0 (no)

Task item: What was the test verdict on CC(=O)O[C@H]1C[C@@H](OC(C)=O)C(C)(C)C2C[C@@H](OC(C)=O)[C@@]3(C)C4=CC(=O)O[C@@H](c5ccoc5)[C@]4(C)CCC3[C@]21C (stereo not given in full) ?
Reply: 0 (no)

Task item: What was the test verdict on O=C(O[C@@H]1Cc2c(O)cc(O)cc2O[C@@H]1c1cc(O)c(O)c(O)c1-c1c([C@H]2Oc3cc(O)cc(O)c3C[C@H]2O)cc(O)c(O)c1O)c1cc(O)c(O)c(O)c1 ?
Reply: 0 (no)

Task item: What was the test verdict on Cc1ccc(/C(=C\CN2CCCC2)c2ccccn2)cc1 ?
Reply: 0 (no)

Task item: What was the test verdict on CC(C)=CCC[C@](C)(O)C1CC=C(C)CC1 (stereo not given in full) ?
Reply: 0 (no)

Task item: What was the test verdict on C=CC(C1=CC(=O)C(OC)=CC1=O)c1ccc(O)cc1 (stereo not given) ?
Reply: 0 (no)

Task item: What was the test verdict on CC(=O)Nc1ccc(S(=O)(=O)c2ccc(NC(C)=O)cc2)cc1 ?
Reply: 0 (no)

Task item: What was the test verdict on CC(=O)O[C@@H]1C[C@@]2(C)[C@H](c3ccoc3)C[C@H]3O[C@]32[C@]2(C)C(=O)C(O)=C3C(C)(C)C(=O)C=C[C@]3(C)C12 (stereo not given in full) ?
Reply: 1 (yes)

====

Parameter normalized growth: see the listing below.
- assayRemarks: chemical genetic growth profiling, strain panel (AID 1159580);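 further: tested at 20 µM; growth read once vehicle control cultures reached saturation at 30 °C; 1 = growth at the plate median or of vehicle wells; lower values mean less growth of the strain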
- measurementParameters: S. cerevisiae deletion strains, growth OD, locus YOR001W, strain rrp6, active compounds read low
Hit rate of the full screen: of about 5,500 compounds, about 2,000 (36%) were called active. Not shown: some 18% with an inconclusive outcome. This is one part of the list.
Enter a number only.

# example entries with known answers
Nc1ncnc2c1ncn2[C@@H]1O[C@H](CO)[C@@H](O)[C@H]1O : 1.02
Nc1ccc(S(=O)(=O)Nc2ccc(Cl)nn2)cc1 : 0.995
O=C(O)CCCCC1CCSS1 (stereo unspecified) : 0.962

Task item: Read the entry COc1c2c(cc3c1OCO3)CCN(C)C2 and write its reported normalized growth.
Reply: 1.04

Task item: Read the entry O=C1C=CC2=C3c4cc(O)c(O)cc4C[C@@]3(O)COC2=C1 and write its reported normalized growth.
Reply: 0.968

Task item: Read the entry NC[C@H](O)c1ccc(O)c(O)c1 and write its reported normalized growth.
Reply: 0.969

Task item: Read the entry Nc1ncnc2c1ncn2C1C[C@H](O)[C@@H](CO)O1 (stereo partly specified) and write its reported normalized growth.
Reply: 1.02

====

- assayRemarks: chemical genetic growth profiling, strain panel (AID 1159580);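 further: tested at 20 µM; growth read once vehicle control cultures reached saturation at 30 °C; 1 = growth at the plate median or of vehicle wells; lower values mean less growth of the strain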
- measurementParameters: S. cerevisiae deletion strains, growth OD, locus YPR167C, strain met16, active compounds read low
The campaign covered roughly 5,500 compounds. About 2,000 (36%) were called active. About 18% were inconclusive and are not listed. The list shows a part of the results.
Parameter normalized growth: see the listing below.
Enter a number only.

Nc1ncn([C@@H]2O[C@H](CO)[C@@H](O)[C@H]2O)c(=O)n1 : 0.994
Nc1ccc(S(=O)(=O)Nc2ccccn2)cc1 : 0.986
O=C(O)CF : 0.99
O=C(O)CCC(=O)C(=O)O : 1.05

Task item: Read the entry CCCCC1(COC(=O)CCC(=O)O)C(=O)N(c2ccccc2)N(c2ccccc2)C1=O and write its reported normalized growth.
Reply: 1.01

Task item: Read the entry COC(=O)C[C@H]1C(C)(C)C(=O)[C@@H]2CC3=C4CC(=O)O[C@@H](c5ccoc5)[C@]4(C)CCC3[C@@]1(C)C2=O (stereo partly specified) and write its reported normalized growth.
Reply: 1.01

====

- assayRemarks: chemical genetic growth profiling, strain panel (AID 1159580);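 further: tested at 20 µM; growth read once vehicle control cultures reached saturation at 30 °C; 1 = growth at the plate median or of vehicle wells; lower values mean less growth of the strain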
- measurementParameters: S. cerevisiae deletion strains, growth OD, locus YDR195W, strain ref2
Hit rate of the full screen: of about 5,500 compounds, about 2,000 (36%) were called active. Roughly 18% stayed inconclusive and do not appear here. Some of the results follow.
Parameter normalized growth: see the listing below.
Enter a number only.

CCN(CC)CCOc1ccc(/C(=C(\Cl)c2ccccc2)c2ccccc2)cc1 : 0.235
COc1cc(OC)c2c(=O)c(-c3ccccc3)c(C)oc2c1OC : 0.921
Cc1occc(=O)c1O : 0.953
O=C(O)c1ccccc1Nc1ccccc1 : 1.05
COc1ccc(C(Cl)=C(c2ccc(OC)cc2)c2ccc(OC)cc2)cc1 : 1.06

Task item: Read the entry O=[N+]([O-])c1cc([As](=O)(O)O)ccc1O and write its reported normalized growth.
Reply: 0.898

Task item: Read the entry Cc1c(Nc2ncccc2C(=O)O)cccc1C(F)(F)F and write its reported normalized growth.
Reply: 0.955

Task item: Read the entry CCOC(=O)c1oc2c(OC)c(O)cc(O)c2c(=O)c1-c1cc(OC)c(OC)c(OC)c1 and write its reported normalized growth.
Reply: 1.05

Task item: Read the entry Cc1ccsc1/C=C/C1=NCCCN1C and write its reported normalized growth.
Reply: 1.01

Task item: Read the entry O=[N+]([O-])c1ccc(O)c([N+](=O)[O-])c1 and write its reported normalized growth.
Reply: 0.927

Task item: Read the entry CCN(CC)CCOc1ccc2c(c1)C(=O)c1cc(OCCN(CC)CC)ccc1-2 and write its reported normalized growth.
Reply: 0.96

Task item: Read the entry CC(=O)Nc1cc([As](=O)(O)O)ccc1O and write its reported normalized growth.
Reply: 0.995
